meta.source: patent US20160145322A1

Biological target: G protein of RSV B/18537 (ATCC Cat. No. VR-1580), on virus (Respiratory syncytial virus B/18537)
Test: cell-based or functional assay
We begin with a simple list: items and their reported Neutralization IC50 (ng/mL), plaque reduction assay, RSV B/18537.
Express your answer in ng/mL, writing the number without its unit.

CB047.2 (antibody, V domains shown, Tested as human IgG from the pCP9-kappa vector) VH: EVQLVESGGGLVQPGGSLRLSCAASGFNFSNYAMSWVRQAPGKGLEWVSDISSSGKTTNSADSVKGRFTISRDNSKNTLFLQMSSLRADDTAVYYCAKFRVPTYCVNGICYQGLPGFDIWGQGTMVTVSS VL: DIQMTQSPSSLSASVGDRVTITCQASQDISDYLNWYQQKPGKAPKLLIYDASNLETGVPSRFSASGSGTDFTFTISSLQPEDFATYYCQHYHNLPPLFGGGTKVEIK
8.9

Prompt line: // lookup Neutralization IC50 (ng/mL), plaque reduction assay, RSV B/18537 for CB030.1 (antibody, V domains shown, Tested as human IgG from the pCP9-kappa vector) VH: QVQLVQSGAEMKRPGSSVKVSCKASGGTFSTFAINWVRQAPGQGFEWMGGVIPGFDSANYAQKFQGRLTMSADESTSTVYMELSSLRSDDTAVYYCAGNSGYCSGDSCAPNWGPGTLVTVSS VL: DIVMTQSPLSLPVTPGEPASISCRSSQSLVHSNGYSYLDWYLQKPGQSPQLLIYLGSNRPSGVPDRFSGSGSGTDFTLKISRVEAEDVGVYFCMQNLQTPTFGGGTKVEIK
Response line: 18.3

Prompt line: // lookup Neutralization IC50 (ng/mL), plaque reduction assay, RSV B/18537 for CB047.1 (antibody, V domains shown, Tested as human IgG from the pCP9-kappa vector) VH: EVQLVESGGGLVQPGGSLRLSCAASGFSFSNYAMSWVRQAPGKGLEWVSDISGSGNSTNFADSVKGRFTISRDNSKNTLYLQMSSLRAEDTAVYYCAKFRVPTYCVNGICYQGLPGFDIWGQGTMVTVSS VL: DIQMTQSPSSLSASVGDRVTITCQASQDISDYLNWYQQKPGKAPKLLIYDASNLETGVPSRFSASGSGTDFTFTISSLQPEDIATYYCQHYHNLPPLFGGGTKVEIK
Response line: 4.7
